measurement-kind: melting point

{"molecule": "O=c1[nH]c2cc3c(cc2cc1-c1csc(-c2cccnc2)n1)OCO3 [Example 9]", "meas-value": "> 220 °C"}
{"molecule": "CCN(CC)C(=O)c1ccc2cc(-c3csc(N(C)S(=O)(=O)c4ccccc4)n3)c(=O)[nH]c2c1 [Example 8767]", "meas-value": "200 to 202 °C"}
{"molecule": "O=C(O)c1cccc2[nH]c(=O)c(-c3csc(-c4ccncc4)n3)cc12 [Example 10]", "meas-value": "> 250 °C"}
{"molecule": "COc1cc2[nH]c(=O)c(-c3csc(-c4cccnc4)n3)c(N)c2cc1OC [Example 20]", "meas-value": "> 250 °C"}

----------
Entries and their melting point
measurement-kind: melting point

{"smiles-representation": "O=c1[nH]c2ccccc2c(-c2ccccc2)c1-c1csc(-c2ccncc2)n1", "meas-value": "> 250 °C"}
{"smiles-representation": "O=C(Cc1ccccc1)Nc1nc(-c2cc3ccccc3[nH]c2=O)cs1", "meas-value": "272 to 278 °C"}
{"smiles-representation": "N#Cc1ccc(-c2csc(-c3cc4ccccc4[nH]c3=O)n2)cc1", "meas-value": "> 300 °C"}

----------
Where a name gives a salt, the structure may show the parent alone.
Entries and their melting point

{"molecule": "Nc1nc(-c2cc3ccccc3[nH]c2=O)cs1 (as salt: hydrobromid)", "melting point": "> 300 °C"}
{"molecule": "O=c1[nH]c2ccccc2cc1-c1csc(Nc2ccccc2F)n1", "melting point": "277 to 278 °C (dec.)"}
{"molecule": "COc1cccc(-c2csc(-c3cc4ccccc4[nH]c3=O)n2)c1", "melting point": "279 to 282 °C"}
{"molecule": "CN1CCN(C(=O)c2ccc3cc(-c4csc(N(C)S(=O)(=O)c5ccccc5)n4)c(=O)[nH]c3c2)CC1", "melting point": "242 to 247 °C"}
{"molecule": "O=c1[nH]c2cc3c(cc2cc1-c1csc(-c2ccncc2)n1)OCO3", "melting point": "167 to 169 °C"}
{"molecule": "CN(C)CCN(C)C(=O)c1ccc2cc(-c3csc(N(C)S(=O)(=O)c4ccccc4)n3)c(=O)[nH]c2c1", "melting point": "144 to 148 °C"}
{"molecule": "O=c1[nH]c2ccccc2c(O)c1-c1csc(-c2ccncc2)n1", "melting point": "> 250 °C"}
{"molecule": "O=c1[nH]c2ccccc2cc1-c1csc(NS(=O)(=O)c2ccc(OC(F)(F)F)cc2)n1", "melting point": "> 300 °C"}
{"molecule": "COC(=O)c1ccc2cc(-c3csc(N(C)S(=O)(=O)c4ccccc4)n3)c(=O)[nH]c2c1", "melting point": "> 300 °C"}
{"molecule": "O=c1[nH]c2ccccc2cc1-c1csc(Nc2ccncc2)n1 (as salt: hydrobromid)", "melting point": "> 300 °C"}
{"molecule": "Cc1c(-c2csc(-c3ccncc3)n2)c(=O)[nH]c2ccccc12", "melting point": "> 250 °C"}
{"molecule": "CCNC(=O)c1ccc2cc(-c3csc(N(C)S(=O)(=O)c4ccccc4)n3)c(=O)[nH]c2c1", "melting point": "> 300 °C"}
{"molecule": "CN(C(=O)c1ccccc1)c1nc(-c2cc3ccccc3[nH]c2=O)cs1", "melting point": "> 300 °C"}
{"molecule": "Nc1c(-c2csc(-c3ccncc3)n2)c(=O)[nH]c2ccc(N3CCCCC3)cc12", "melting point": "199 to 202 °C"}
{"molecule": "C=CCN(c1nc(-c2cc3ccccc3[nH]c2=O)cs1)S(=O)(=O)c1ccccc1", "melting point": "214 to 216 °C"}
{"molecule": "Nc1nc(-c2c(-c3ccccc3)c3ccccc3[nH]c2=O)cs1", "melting point": "> 220 °C"}
{"molecule": "O=c1[nH]c2ccccc2cc1-c1csc(NCc2ccco2)n1 (as salt: hydrobromid) [Example 79, hydrobromide]", "melting point": "221 to 224 °C (dec.)"}
{"molecule": "COc1cc2[nH]c(=O)c(-c3csc(-c4ccncc4)n3)c(N)c2cc1OC", "melting point": "> 250 °C"}
{"molecule": "O=c1[nH]c2ccccc2cc1-c1csc(Nc2ccccn2)n1 (as salt: hydrobromid)", "melting point": "307 to 312 °C (dec.)"}
{"molecule": "CS(=O)(=O)c1ccc(-c2csc(-c3cc4ccccc4[nH]c3=O)n2)cc1", "melting point": "> 300 °C"}
{"molecule": "CN1CCN(c2ccc3[nH]c(=O)c(-c4csc(-c5ccncc5)n4)c(N)c3c2)CC1", "melting point": "> 220 °C"}
{"molecule": "Cc1onc(-c2ccccc2)c1-c1csc(-c2cc3ccccc3[nH]c2=O)n1", "melting point": "242 to 244 °C"}
{"molecule": "O=c1[nH]c2ccccc2cc1-c1csc(NS(=O)(=O)c2ccccc2)n1", "melting point": "> 300 °C"}
{"molecule": "O=c1[nH]c2ccccc2cc1-c1nc(-c2ccncc2)cs1 (as salt: salt)", "melting point": "> 300 °C"}
{"molecule": "O=c1[nH]c2ccccc2cc1-c1csc(N(Cc2ccccc2)S(=O)(=O)c2ccccc2)n1", "melting point": "228 to 232 °C"}
{"molecule": "Nc1c(-c2csc(-c3ccncc3)n2)c(=O)[nH]c2ccc(Cl)cc12", "melting point": "> 220 °C"}
{"molecule": "O=C(Nc1nc(-c2cc3ccccc3[nH]c2=O)cs1)c1ccccc1 (as salt: HCl)", "melting point": "309 to 311 °C (dec.)"}
{"molecule": "COc1ccc(CC(=O)Nc2nc(-c3cc4ccccc4[nH]c3=O)cs2)c(OC)c1", "melting point": "295 to 300 °C (dec.)"}
{"molecule": "Nc1c(-c2csc(-c3ccncc3)n2)c(=O)[nH]c2ccccc12 (as salt: salt)", "melting point": "> 250 °C"}
{"molecule": "CN(c1nc(-c2cc3ccccc3[nH]c2=O)cs1)S(=O)(=O)c1cccc(F)c1", "melting point": "247 to 249 °C"}
{"molecule": "COC(=O)c1cccc2[nH]c(=O)c(-c3csc(-c4ccncc4)n3)cc12", "melting point": "> 250 °C"}
{"molecule": "O=c1[nH]c2ccccc2cc1-c1csc(-c2ccncc2)n1", "melting point": "241 to 243 °C"}
{"molecule": "O=c1[nH]c2ccccc2cc1-c1csc(NS(=O)(=O)c2ccc(Cl)cc2)n1", "melting point": "> 300 °C"}
